System: HRV-10
Test: Antirhinoviral H1-HeLa cell culture assay (XTT cell protection)
Type: cell-based
Settings: Human rhinovirus sp., HRV10; HRV-10, H1-HeLa cells
pEC50: −log10 of the molar value.
experimental endpoint: pEC50

[a] C#CC[C@H](CC(=O)c1ccc(-c2ccccc2Cl)[nH]1)C(=O)N[C@H](/C=C/C(=O)OCC)C[C@@H]1CCNC1=O
[b] C#CC[C@H](NC(=O)c1ccc(-c2ccccc2C(F)(F)F)[nH]1)C(=O)N[C@H](/C=C/C(=O)OCC)C[C@@H]1CCNC1=O
Input line: Two entries are listed, a and b . Which one carries the higher pEC50? Write down the label attached to your selection.
Output line: b
(b: 7.57, a: 6.35)

====

Molecular target: rhinovirus 3C protease, serotype 14 (Human rhinovirus 14)
Construct: Recombinant rhinovirus 3C proteases; made in house
Sequence (P03303 1538-1719): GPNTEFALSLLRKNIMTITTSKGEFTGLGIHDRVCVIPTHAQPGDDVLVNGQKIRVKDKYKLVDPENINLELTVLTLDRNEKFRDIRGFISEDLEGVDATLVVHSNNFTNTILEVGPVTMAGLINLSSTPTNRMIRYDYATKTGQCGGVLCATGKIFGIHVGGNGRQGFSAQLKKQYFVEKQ
Assay: Inhibition of rhinovirus 3C protease (FRET assay, enzyme start)
Type: biochemical
Details: HRV-14 3C protease, progress curves, read-out: Kobs/I
Description: Stock solutions (50 mM, in DMSO) of various compounds were prepared; dilutions were in the same solvent. […] RVP activity was measured in the fluorescence resonance energy transfer assay. […] In the uncleaved peptide, the EDANS fluorescence was quenched by the proximal DABCYL moiety. When the peptide was cleaved, the quenching was relieved, and activity was measured as an increase in fluorescence signal. […]
experimental endpoint: kinact/KI (M⁻¹ s⁻¹)

- smiles: "CCOC(=O)/C=C/[C@H](C[C@@H]1CCNC1=O)NC(=O)[C@H](CC)CC(=O)c1ccc(-c2ccccc2C(F)(F)F)[nH]1"
  assay system: "rhinovirus 3C protease, serotype 14 (Human rhinovirus 14)"
  kinact/KI, M⁻¹ s⁻¹: 26400

[P] CCOC(=O)/C=C/[C@H](CCC(N)=O)NC(=O)[C@H](Cc1ccccc1)NC(=O)c1ccc(-c2cc(C)no2)[nH]1
[Q] O=C1OCC/C1=C\[C@H](C[C@@H]1CCNC1=O)NC(=O)[C@@H](CC(=O)c1ccc(-c2cccc3ccccc23)[nH]1)Cc1ccc(F)cc1
[R] C#CC[C@H](CC(=O)c1ccc(-c2ccccc2C)[nH]1)C(=O)N[C@H](/C=C/C(=O)OCC)C[C@@H]1CCNC1=O
[S] O=C1OCC/C1=C\[C@H](C[C@@H]1CCNC1=O)NC(=O)[C@H](Cc1ccc(F)cc1)NC(=O)c1ccc(-c2cccc3ccccc23)[nH]1
[T] CCOC(=O)/C=C/[C@H](CCC(N)=O)NC(=O)[C@H](Cc1ccccc1)NC(=O)c1ccc(-c2cc(OC)ccc2OC)[nH]1
Input line: Descending sort on kinact/KI required. A ranking is expressed here by listing the labels in the requested order.
Output line: S, Q, R, T, P
(S: 188000 M⁻¹ s⁻¹, Q: 100000 M⁻¹ s⁻¹, R: 20100 M⁻¹ s⁻¹, T: 5200 M⁻¹ s⁻¹, P: 1380 M⁻¹ s⁻¹)

====

System: HRV-14
Experiment: Antirhinoviral H1-HeLa cell culture assay (XTT cell protection)
Format: cell-based, human rhinovirus
Conditions: Rhinovirus B, HRV14, H1-HeLa, HRV-14, H1-HeLa cells
pEC50: −log10 of the molar value.
experimental endpoint: pEC50

Illustrative cases are given below, each with its answer.
- smiles: "CCOC(=O)/C=C/[C@H](C[C@@H]1CCNC1=O)NC(=O)[C@H](Cc1ccccc1)NC(=O)c1ccc(-c2cccc3ccccc23)[nH]1"
  pEC50: 7.47
- smiles: "C#CC[C@H](NC(=O)c1ccc(-c2ccccc2C(F)(F)F)[nH]1)C(=O)N[C@H](/C=C/C(=O)OCC)C[C@@H]1CCNC1=O"
  pEC50: 6.82
- smiles: "CCOC(=O)/C=C/[C@H](CCC(N)=O)NC(=O)[C@H](CC)NC(=O)c1ccc(-c2ccccc2C(F)(F)F)[nH]1"
  pEC50: 5.81

[I] CCOC(=O)/C=C/[C@H](CCC(N)=O)NC(=O)[C@H](Cc1ccccc1)NC(=O)c1ccc(-c2cccc3c2OCO3)[nH]1
[II] CCOC(=O)/C=C/[C@H](C[C@@H]1CCNC1=O)NC(=O)[C@@H](CC(=O)c1ccc[nH]1)Cc1ccccc1
[III] CCOC(=O)/C=C/[C@H](CCC(N)=O)NC(=O)[C@H](Cc1ccccc1)NC(=O)c1ccc(-c2cccc3ccccc23)[nH]1
[IV] CCOC(=O)/C=C/[C@H](CCC(N)=O)NC(=O)[C@H](Cc1ccccc1)NC(=O)c1ccc(-c2ccncc2)[nH]1
Input line: Number of compounds to sort: 4. Sort criterion: pEC50, ascending. Returns: the labels arranged in the requested order.
Output line: IV, II, I, III
(IV: 4.57, II: 5.48, I: 5.90, III: 6.96)

[P] C#CC[C@H](NC(=O)c1ccc(-c2ccccc2C(F)(F)F)[nH]1)C(=O)N[C@H](/C=C/C(=O)OCC)CCC(N)=O
[Q] CCOC(=O)/C=C/[C@H](CCC(N)=O)NC(=O)[C@H](Cc1ccccc1)NC(=O)c1ccc(-c2ccccc2Br)[nH]1
Input line: Field: entry with larger pEC50 (options P / Q ). Indicate your choice by writing its label.
Output line: Q

====

System: HRV-14
Test: Antirhinoviral H1-HeLa cell culture assay (XTT cell protection)
Format: cell-based, human rhinovirus
Conditions: Rhinovirus B, HRV14, H1-HeLa, HRV-14, H1-HeLa cells
pEC50: −log10 of the molar value.
experimental endpoint: pEC50

As a guide, the following entries are already answered.
- molecule: "CCOC(=O)/C=C/[C@H](CCC(N)=O)NC(=O)[C@H](Cc1ccccc1)NC(=O)c1ccc(-c2cccnc2)[nH]1 [Compound 8]"
  assay system: "HRV-14"
  experimental endpoint: "pEC50"
  meas value: 5.31
- molecule: "CCCC[C@H](NC(=O)c1ccc(-c2ccccc2C(F)(F)F)[nH]1)C(=O)N[C@H](/C=C/C(=O)OCC)CCC(N)=O [Compound 19]"
  assay system: "HRV-14"
  experimental endpoint: "pEC50"
  meas value: 5.82
- molecule: "CCOC(=O)/C=C/[C@H](CCC(N)=O)NC(=O)[C@H](Cc1ccccc1)NC(=O)c1ccc(-c2cccc(C(C)C)c2)[nH]1 [Compound 6]"
  assay system: "HRV-14"
  experimental endpoint: "pEC50"
  meas value: 5.85

[I] CCOC(=O)/C=C/[C@H](CCC(N)=O)NC(=O)CNC(=O)c1ccc(-c2ccccc2C(F)(F)F)[nH]1 [Compound 20]
[II] CCC[C@H](NC(=O)c1ccc(-c2ccccc2C(F)(F)F)[nH]1)C(=O)N[C@H](/C=C/C(=O)OCC)CCC(N)=O [Compound 18]
Input line: Please choose the item with the lower pEC50 value from this pair: I and II # respond with the chosen item's label
Output line: I

====

Tested on: HRV-14
Test: Antirhinoviral H1-HeLa cell culture assay (XTT cell protection)
Assay type: cell-based, human rhinovirus
Details: Rhinovirus B, HRV14, H1-HeLa, HRV-14, H1-HeLa cells
Procedure: In this cell protection assay, the ability of compounds to protect cells against HRV infection was measured by the XTT dye reduction method, which is described in Weislow et al., J. Natl. Cancer Inst. (1989), vol. 81, 577-586. […] Two days later, XTT/PMS was added to test plates and the amount of formazan produced was quantified spectrophotometrically at 450/650 nm. […] The therapeutic index (TI) was calculated by dividing the CC50 value by the EC50 value. […]
pEC50: −log10 of the molar value.
experimental endpoint: pEC50

[1] C#CC[C@H](CC(=O)c1ccc(-c2ccccc2C)[nH]1)C(=O)N[C@H](/C=C/C(=O)OCC)C[C@@H]1CCNC1=O [Compound 39]
[2] CCOC(=O)/C=C/[C@H](C[C@@H]1CCNC1=O)NC(=O)[C@H](Cc1ccccc1)NC(=O)c1ccc[nH]1 [Compound 24]
Input line: // task: argmin of pEC50 over [ 1 , 2 ] Lab log: write the label of the selected item as the result.
Output line: 2

====

# Lookup of reported CC50 keyed by entry
Test system: H1-HeLa cells
Assay: Cytotoxicity in mock-infected cells of the antirhinoviral assay (XTT)
Assay type: cell-based
Conditions: table line HRV-10

- compound: "C#CC[C@H](NC(=O)c1ccc(-c2ccccc2C(F)(F)F)[nH]1)C(=O)N[C@H](/C=C/C(=O)OCC)C[C@@H]1CCNC1=O [Compound 29]"
  assay system: "H1-HeLa cells"
  meas value: "> 10 µM"
- compound: "C#CC[C@H](CC(=O)c1ccc(-c2ccccc2C)[nH]1)C(=O)N[C@H](/C=C/C(=O)OCC)C[C@@H]1CCNC1=O [Compound 39]"
  assay system: "H1-HeLa cells"
  meas value: "> 10 µM"

Input line: Tell us which CC50 value is on record for CCOC(=O)/C=C/[C@H](C[C@@H]1CCNC1=O)NC(=O)[C@H](Cc1ccccc1)NC(=O)c1ccc(-c2ccccc2C(F)(F)F)[nH]1 [Compound 28]
Output line: > 1 µM

Input line: Report CC50 for C#CC[C@H](CC(=O)c1ccc(-c2ccccc2C(F)(F)F)[nH]1)C(=O)N[C@H](/C=C/C(=O)OCC)C[C@@H]1CCNC1=O [Compound 36]
Output line: > 10 µM

Input line: For the compound CCOC(=O)/C=C/[C@H](C[C@@H]1CCNC1=O)NC(=O)[C@H](Cc1ccccc1)NC(=O)c1ccc(-c2cccc3ccccc23)[nH]1 [Compound 25] , give its measured CC50 value.
Output line: > 10 µM

Input line: Look up and state reported CC50 for C#CC[C@H](CC(=O)c1ccc(-c2ccccc2Cl)[nH]1)C(=O)N[C@H](/C=C/C(=O)OCC)C[C@@H]1CCNC1=O [Compound 38]
Output line: > 10 µM

Data provenance: patent US6872745B2
